# Tested on: MDA-N
# assay-notes: NCI tumour cell line growth inhibition, 48 h
test-readout: TGI

> print(dat)
                                   compound  target.desc    result
1  CCCCCCCCCCCCCC1=C(O)C(=O)C(CC2=C(O)C(=O)C(CCCCCCCCCCCCC)=C(O)C2=O)=C(O)C1=O        MDA-N  > 100 µM
2  CC12CCC(=O)N1c1cncnc1N2 (centres undefined)        MDA-N   > 10 µM
3          CCOC(=O)c1ccc(C(=O)n2ccnc2)[nH]1        MDA-N  > 100 µM
4     O=C(O)C1(Cc2ccccc2)Cc2cc3c(cc2C1)CCC3        MDA-N  > 100 µM
5       O=C(O)c1ccccc1CC1Cc2cc3c(cc2C1)CCC3        MDA-N  > 100 µM
6  CCOC(=O)Cc1nnc2n(-c3ccccc3)c(=O)c3ccccc3n12        MDA-N  > 100 µM
7  COc1cc(/C=C2\CCC/C(=C\c3ccc(O)c(OC)c3)C2=O)ccc1O        MDA-N   12.5 µM
8  O=C1/C(=C/c2ccc(O)cc2)CCc2ccc([N+](=O)[O-])cc21        MDA-N  > 100 µM

Please turn your attention to the following entry.
Lookup: Please give the documented TGI of O=c1oc2ccccc2c(O)c1C(c1cnc2ccccc2c1)c1c(O)c2ccccc2oc1=O
Found: 69.5 µM

Hey, just so you know, these numbers are from PubChem BioAssay (NCI).
